Origin of measurements: patent US20250340659A1

Measured % Signal Inhibition Average by item
studySystem: T1, canine OX40L, full length membrane form, expressed on HEK293 cells (canine)
T1 chain: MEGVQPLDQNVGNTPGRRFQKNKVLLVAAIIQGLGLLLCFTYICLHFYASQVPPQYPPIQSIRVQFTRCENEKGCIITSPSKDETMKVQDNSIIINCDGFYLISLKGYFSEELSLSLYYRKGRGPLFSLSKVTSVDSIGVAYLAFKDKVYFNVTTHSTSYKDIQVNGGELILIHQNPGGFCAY
experimentalProtocol: cell-based or functional assay
Report the figure in % without appending any unit label.

binder="PMX059 (antibody, V domains shown, also called PMX59) VH: EVHLVESGGDLVKPEGSLRLSCVVSGFTFSNYVMNWVRQAPGKGLQWVAFISGDGRSTTYTDAVKSRFTISRDNAKNTLYLQMSSLRTEDTAIYFCAKEKYSSGWSFEYWGQGTLVTVSS VL: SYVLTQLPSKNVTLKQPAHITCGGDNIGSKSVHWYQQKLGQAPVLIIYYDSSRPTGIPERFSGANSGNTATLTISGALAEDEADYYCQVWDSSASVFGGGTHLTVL" value=57.8
binder="PMX048 (antibody, V domains shown, also called PMX48) VH: EVQLVESGGDLVKPGGSLRLSCVASGFTFNNYEMYWVRQAPGKGLEWVARIYESGTTTYSAEADTGRFTISRDNAKNMVFLQMNSLRAEDTAVYYCASASSSTWRFDYWGQGTLVTVSS VL: SYVLTQLPSVSVTLGQTARITCGGDSIGRKNVYWFQQKLGQAPVLIIYDDRSRPSGIPERFSGANSGNTATLTISGALAEDEADYYCQVWDSSTGVFGGGTHLTVL" value=69.9
binder="PMX065 (antibody, V domains shown, also called PMX65) VH: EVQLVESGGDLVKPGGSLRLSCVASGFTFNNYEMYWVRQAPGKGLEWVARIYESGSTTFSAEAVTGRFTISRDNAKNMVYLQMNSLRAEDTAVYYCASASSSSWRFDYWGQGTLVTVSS VL: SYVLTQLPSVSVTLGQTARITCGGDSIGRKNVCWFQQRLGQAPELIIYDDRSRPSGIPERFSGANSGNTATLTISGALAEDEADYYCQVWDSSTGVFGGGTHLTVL" value=72.6

The binder PMX034 (antibody, V domains shown, also called PMX34) VH: EVQLVESGGDLVKPGGSLRLSCVASGFTFSNYHMSWVRQAPGKGLQWVAYIVSGGSSTTYADAVKGRFTISRDNAKNTLYLQMTSLRAEDTAVYYCASDLVLLVGGADYWGQGTLVTVSS VL: SYELTQPPSVNVTLRETAHITCGGDSIGSKYVQWIQQNPGQAPVVIIYKDSNRPTGIPERFSGANSGNTATLTISGALAEDEADYYCQVGDSGTKAVFGGGTHLTVL showed % Signal Inhibition Average equal to 64.2

The binder PMX109 (antibody, V domains shown) VH: EVQLVESGGDLVRPGGSLRLSCVASGFTFTNYHMSWVRQAPGKGLQWVAFINSGGSSTTYTDVVRGRFTISRDYAKNTLYLQMNSLTAEDTAVYYCASGSIWTHFDHWGQGTLVTVSS VL: SFVLTQLPSVSVTLRQTARITCGGDSVGSKSVYWYQQKLGQAPVLIIYRDSNRPTGIPERFSGASSGNTATLTISGALAEDEADYYCQVWDNSNKAIFGGGTHLTVL showed % Signal Inhibition Average equal to 53.3

The binder PMX093 (antibody, V domains shown) VH: EVQLVESGGDLVKPGGSLRLSCVASGFTFSSYHMSWVRQAPGKGLQWVAFINSGGGGTNYADAVKGRFTISRDYAKNTLYLQMNSLRAEDTAVYYCVGGSIWTHFDYWGQGTLVTVSS VL: SYVLTQLPSMSVTLRQTARITCEGDIIASKRVYWYQQKLGQVPVLLIYGDSSRPSGIPERFSGANSGNTATLTISGALAEDEADYYCQVWDSGTNSVFGGGTHLTVL showed % Signal Inhibition Average equal to 5.46
